# Tested on: Pseudomonas aeruginosa
# EXPERIMENTAL DETAILS: Minimum inhibitory concentration against Pseudomonas aeruginosa 1592E was determined by agar dilution method using Mueller-Hinton
# Format: functional
MEASURE NAME: MIC (mg/L)
Express it in mg/L; write the number only.

Any idea what its MIC is? The compound is COC(=O)c1cc(/C=C\[C@@H]2C[C@H](SC3=C(C(=O)O)N4C(=O)[C@H]([C@@H](C)O)[C@H]4[C@H]3C)CN2)on1 0.195

Look at this compound and give its reported MIC. C[C@@H](O)[C@H]1C(=O)N2C(C(=O)O)=C(S[C@@H]3CN[C@H](/C=C/c4ccno4)C3)[C@H](C)[C@H]12 0.195

I would be grateful if you could share the reported MIC for C[C@@H](O)[C@H]1C(=O)N2C(C(=O)O)=C(S[C@@H]3CN[C@H](/C=C/c4cc(Cl)no4)C3)[C@H](C)[C@H]12 . 0.781

Bench note: what MIC did C[C@@H](O)[C@H]1C(=O)N2C(C(=O)O)=C(S[C@@H]3CN[C@H](/C=C\c4cc(CO)no4)C3)[C@H](C)[C@H]12 show? 3.12

Which MIC is listed for C[C@@H](O)[C@H]1C(=O)N2C(C(=O)O)=C(SCCNC=N)C[C@H]12 [IMIPENEM ANHYDROUS] ? 1.56

# lookup: MIC of COC(=O)c1cc(/C=C/[C@@H]2C[C@H](SC3=C(C(=O)O)N4C(=O)[C@H]([C@@H](C)O)[C@H]4[C@H]3C)CN2)on1 0.195

Name the reported MIC value associated with the compound C[C@@H](O)[C@H]1C(=O)N2C(C(=O)O)=C(S[C@@H]3CN[C@H](/C=C/c4ccon4)C3)[C@H](C)[C@H]12 3.12

Give the measured MIC of COc1cc(/C=C/[C@@H]2C[C@H](SC3=C(C(=O)O)N4C(=O)[C@H]([C@@H](C)O)[C@H]4[C@H]3C)CN2)on1 . 12.5

Please report the recorded MIC for C[C@@H](O)[C@H]1C(=O)N2C(C(=O)O)=C(S[C@@H]3CN[C@H](/C=C\c4cnoc4)C3)[C@H](C)[C@H]12 . 25

Reported MIC for C[C@@H](O)[C@H]1C(=O)N2C(C(=O)O)=C(S[C@@H]3CN[C@H](/C=C/c4cc(CO)no4)C3)[C@H](C)[C@H]12 : what is it? 0.195

Request the reported MIC associated with C[C@@H](O)[C@H]1C(=O)N2C(C(=O)O)=C(S[C@@H]3CN[C@H](C(=O)N(C)C)C3)[C@H](C)[C@H]12 [MEROPENEM] 0.195
